# reported IC50; entries follow
- System: KB
- method.summary: Cytotoxicity against human KB cells after 3 days by resazurin microplate assay
- Assay type: functional, cell-based
- measurement.setup: Homo sapiens, KB, 72 h; read-out: IC50
Answer format: numeric, µM implied, no suffix.

See these solved cases before continuing.
COC1=C(CC(C)(C)CNC(=O)c2ccc3ccccc3c2OC)C(=O)c2ccccc2C1=O
64.1
CC(C)(CNC(=O)c1ccccc1)CC1=C(O)C(=O)c2ccccc2C1=O
15.2
COc1cc(C(=O)NCC(C)(C)CC2=C(O)C(=O)c3ccccc3C2=O)c(O)c2ccccc12
8.62
COc1ccc(OC)c(C(=O)NCC(C)(C)CC2=C(O)C(=O)c3ccccc3C2=O)c1
86.6
COC1=C(CC(C)(C)CNC(=O)c2ccccc2)C(=O)c2ccccc2C1=O
117

## Input Request - read-out IC50 | tested on KB | compound COc1ccccc1C(=O)NCC(C)(C)CC1=C(O)C(=O)c2ccccc2C1=O
## Output 26.3

## Input Request - read-out IC50 | tested on KB | compound COc1cc(C(=O)NCC(C)(C)CC2=C(O)C(=O)c3ccccc3C2=O)c(OC)c2ccccc12
## Output 47
